List of IC50 values.
Test system: collagen induced platelet aggregation
measurement protocol: In vitro inhibition of collagen induced platelet aggregation (aggregometer method of Born, modified by Mustard)
Format: cell-based, rabbit
assay setup: Oryctolagus cuniculus, in vitro, rabbit PRP, collagen induced, Table 1, read-out: Inhibitory activity IC50, Collagen
endpoint label: IC50 (µg/mL)

> print(dat)
                    compound.structure                           assay.system  endpoint.value
 1         CCN(CC)CC/C=C/C(=O)c1ccccc1  collagen induced platelet aggregation             1.8
 2    CCN(CC)C/C=C/C(=O)c1ccc2ccccc2c1  collagen induced platelet aggregation             1.7
 3     O=C(/C=C/CN1CCCCC1)c1ccc(Br)cc1  collagen induced platelet aggregation               3
 4          O=C(/C=C/CN1CCCCC1)c1ccco1  collagen induced platelet aggregation             2.2
 5  CCN(CC)C/C=C/C(=O)c1ccccc1C(F)(F)F  collagen induced platelet aggregation             4.2
 6    CC(C)N(C/C=C/C(=O)c1ccccc1)C(C)C  collagen induced platelet aggregation             1.6
 7           CCN(CC)C/C=C/C(=O)c1cccs1  collagen induced platelet aggregation             2.3
 8      CCN(CC)C/C=C/C(=O)c1ccc(SC)cc1  collagen induced platelet aggregation             2.4
 9        CCCCCCN(C)C/C=C/C(=O)c1ccco1  collagen induced platelet aggregation             5.8
10       CSc1ccccc1C(=O)/C=C/CN1CCCCC1  collagen induced platelet aggregation             3.7
11     CN(C/C=C/C(=O)c1ccccc1)C1CCCCC1  collagen induced platelet aggregation             3.7

* * *

Test system: collagen induced platelet aggregation
measurement protocol: In vitro inhibition of collagen induced platelet aggregation (aggregometer method of Born, modified by Mustard)
Format: cell-based, rabbit
assay setup: Oryctolagus cuniculus, in vitro, rabbit PRP, collagen induced, Table 1, read-out: Inhibitory activity IC50, Collagen
Description: The aggregometer method of Born [G. V. R. Born: J.Physiol., London, 162, 67 (1962)] as modified by Mustard et al. [J. F. Mustard et al.: J.Lab.Clin.Med., 64, 548 (1964)] was used to assess the in vitro activity of various compounds as to inhibition of collagen and adenosine diphosphate (ADP) induced platelet aggregation. Platelet rich plasma (PRP) was separated by centrifugation from citrated (3.8%) rabbit blood. […]
Where a name gives a salt, the structure may show the parent alone.
Please note: IC50 exactly at 3 µg/mL is Not met. Only values below 3 µg/mL get Met.

> print(dat)
                                   compound  assigned.class
1  CCN(CC)C/C=C/C(=O)c1ccc2c(c1)OCO2 [Compound 20]         Not met
2  O=C(/C=C/CN1CCCCC1)c1ccc(Cl)cc1 [Compound 15]             Met
3  CCN(CC)C/C=C/C(=O)c1ccccc1 [Compound 3, hydrobromide]             Met
4  CCN(CC)C/C=C/C(=O)c1ccccc1Cl [Compound 12]             Met
5  CCCN(C/C=C/C(=O)c1ccccc1)CCC [Compound 4]             Met
6  CCN(CC)C/C=C/C(=O)c1ccc(Cl)cc1 [Compound 14]             Met

* * *

Tested on: collagen induced platelet aggregation
measurement protocol: In vitro inhibition of collagen induced platelet aggregation (aggregometer method of Born, modified by Mustard)
Type: cell-based, rabbit
assay setup: Oryctolagus cuniculus, in vitro, rabbit PRP, collagen induced, Table 1, read-out: Inhibitory activity IC50, Collagen
Consider the following partition of reported IC50 into named classes: low interval: < 2 µg/mL; middle interval: ≥ 2 µg/mL and < 3 µg/mL; high interval: ≥ 3 µg/mL

> print(dat)
                                    compound   assigned.class
 1   CCN(CC)C/C=C/C(=O)c1ccco1 [Compound 31]     low interval
 2  CN(C/C=C/C(=O)c1ccccc1)C12CC3CC(CC(C3)C1)C2 [Compound 7]  middle interval
 3   O=C(/C=C/CN1CCCC1)c1ccccc1 [Compound 9]     low interval
 4  O=C(/C=C/CN1CC2CCC(CC2)C1)c1ccccc1 [Compound 36]     low interval
 5  CCCCN(C/C=C/C(=O)c1ccccc1)CCCC [Compound 6]  middle interval
 6  O=C(/C=C/CN1CCCCC1)c1cccc(Cl)c1 [Compound 13]    high interval
 7  O=C(/C=C/CN1CCCCC1)c1ccc(C(F)(F)F)cc1 [Compound 28]    high interval
 8  O=C(/C=C/CN1CCCCC1)c1ccccc1 [Compound 10]    high interval
 9  CSc1ccc(C(=O)/C=C/CN2CCCCC2)cc1 [Compound 26]     low interval
10  CSc1ccc(C(=O)/C=C/CN(C)C)cc1 [Compound 22]  middle interval
11  Cc1ccc(C(=O)/C=C/CN2CCCCC2)cc1 [Compound 18]    high interval
12    CCN(C)C/C=C/C(=O)c1ccccc1 [Compound 2]  middle interval
13  CCCN(C/C=C/C(=O)c1ccc(SC)cc1)CCC [Compound 24]  middle interval
14  CCN(CC)C/C=C/C(=O)c1ccc(C)cc1 [Compound 17]     low interval
15  O=C(/C=C/CN1CCCCC1)c1cccs1 [Compound 35]     low interval
16  CSc1ccc(C(=O)/C=C/CN2CCCC2)cc1 [Compound 25]     low interval
17  O=C(/C=C/CN1CCCCC1)c1ccc2ccccc2c1 [Compound 30]  middle interval
18  CCN(CC)C/C=C/C(=O)c1ccc(OC)cc1 [Compound 19]    high interval
